Molecular target: HLA-A*24 (human)
Assay: UV peptide exchange, anti-b2m ELISA
endpoint-label: peptide exchange yield

Here are 10 binders together with their reported answers.
YYEVHKELF [SEQ ID No 175 peptide …]    > 75%
TYTQDFNKF [SEQ ID No 208 peptide …]    50 to 75%
EYSLFPGQVVI [SEQ ID No 197 peptide …]    50 to 75%
RYAEEVGIF [SEQ ID No 199 peptide …]    50 to 75%
VYTLDIPVL [SEQ ID No 160 peptide …]    > 75%
NYINRILKL [SEQ ID No 167 peptide …]    > 75%
VYVSDIQEL [SEQ ID No 288 peptide …]    50 to 75%
VFQNFPLLF [SEQ ID No 184 peptide …]    > 75%
DYLKGLASF [SEQ ID No 163 peptide …]    > 75%
RYISDQLFTNF [SEQ ID No 278 peptide …]    > 75%

*Q* Quick one: peptide exchange yield for TYKDEGNDYF [SEQ ID No 209 peptide …] ?
*A* 50 to 75%

*Q* Quick one: peptide exchange yield for TYIESASEL [SEQ ID No 279 peptide …] ?
*A* 50 to 75%

*Q* Quick one: peptide exchange yield for KYTSWYVAL [SEQ ID No 228 peptide …] ?
*A* > 75%

*Q* Quick one: peptide exchange yield for YYLEVGKTLI [SEQ ID No 211 peptide …] ?
*A* > 75%

*Q* Quick one: peptide exchange yield for AYVVFVSTL [SEQ ID No 207 peptide …] ?
*A* 20 to 49%

*Q* Quick one: peptide exchange yield for KYIPYKYVI [SEQ ID No 223 peptide …] ?
*A* 50 to 75%
